Measured values drawn from patent US20230086603A1 for this set.

Molecular target: T1, human PD-L1 (hPD-L1) (human, UniProt Q9NZQ7 19-290)
T1 construct: Endogenous hPD-L1 on JIMT1 (JIMT-1) cells; also called programmed death-ligand 1; CD274
T1 sequence (Q9NZQ7 19-290 limits assumed): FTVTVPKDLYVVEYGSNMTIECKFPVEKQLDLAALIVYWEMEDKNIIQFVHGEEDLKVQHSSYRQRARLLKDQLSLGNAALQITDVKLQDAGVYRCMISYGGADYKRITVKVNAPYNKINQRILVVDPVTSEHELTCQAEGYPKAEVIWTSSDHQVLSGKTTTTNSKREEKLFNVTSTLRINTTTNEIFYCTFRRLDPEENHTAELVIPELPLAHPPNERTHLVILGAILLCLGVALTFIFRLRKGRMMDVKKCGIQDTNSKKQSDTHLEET
Experiment: flow cytometry on JIMT-1 cells expressing endogenous human PD-L1; anti-human IgG Fc secondary; geometric MFI
Reported property: binding result

>>> observed_measurement("18 (antibody, V domains shown) VH: QVQLVQSGAEVKKPGASVKVSCKASGYTFTSYYMHWVRQAPGQGLEWVGWMTPSTGNAGYAQKFQGRVTMTRDTSTSTVYMELSSLRSEDTAVYYCAREEWLGHFQHWGQGTLVTVSS VL: DIQMTQSPSSLSASVGDRVTITCRASQGISNGLSWYQQKPGKAPKLLIYAASTLQSGVPSRFSGSGSGTDFTLTISSLQPEDFATYYCQQSHSTPLTFGGGTKVEIK")
"binds"
>>> observed_measurement("68 (antibody, V domains shown) VH: QVQLVQSGAEVKKPGASVKVSCKASGYTFTGYYMHWVRQAPGQGLEWMGWINPNSGTTGYAQNFQGRVTMTRDTSTSTVYMELSSLRSEDTAVYYCAREGFGPNAFDIWGQGTTVTVSS VL: DIQMTQSPSSLSASVGDRVTITCRASQSISSWLAWYQQKPGKAPKLLIYAASNLQSGVPSRFSGSGSGTDFTLTISSLQPEDFATYYCQQYYSTPYTFGQGTKVEIK")
"binds"
>>> observed_measurement("31 (antibody, V domains shown) VH: QVQLVQSGAEVKKPGASVKVSCKASGYTFTSYYMHWVRQAPGQGLEWMGWLTPSTGHAGYAQKFQGRVTMTRDTSTSTVYMELSSLRSEDTAVYYCAREGYGGNYGNWGQGTLVTVSS VL: DIQMTQSPSSLSASVGDRVTITCRASQSISPWLAWYQQKPGKAPKLLIYDASNLETGVPSRFSGSGSGTDFTLTISSLQPEDFATYYCQQTYSTPITFGQGTRLEIK")
"binds"
